Measured pKi by item
- test system: human GSTA1-1 (Homo sapiens)
- Sequence (P08263 1-222): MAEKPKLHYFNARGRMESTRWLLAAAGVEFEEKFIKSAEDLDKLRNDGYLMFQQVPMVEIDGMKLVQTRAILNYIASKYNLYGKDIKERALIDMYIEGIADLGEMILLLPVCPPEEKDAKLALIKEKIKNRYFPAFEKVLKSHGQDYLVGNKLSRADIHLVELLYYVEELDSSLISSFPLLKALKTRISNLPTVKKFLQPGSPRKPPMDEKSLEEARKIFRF
- test: GST inhibition assay (CDNB conjugation), Ki determination
- run conditions: human recombinant GSTA1-1; ± SD; 50 μM inhibitor, 50 μM-4 mM GSH, 1 mM CDNB, pH 6.5
pKi: −log10 of the molar value. Numbered stars: 1 amine (or outer) side, 2 acyl side, 3 side chain; on linkers, the order of the positions; unused ones are H or OH. Square brackets hold non-standard residues; d marks the D form. Peptide text beside a SMILES is read from it. * marks the point of attachment. ξ: configuration not given here. γGlu = O=C(O)[C@H](CCC(=O)[*:2])N[*:1]; ξPhg = NC(C(=O)O)c1ccccc1; Bn = c1ccc(C*)cc1

{"columns": ["compound", "test system", "pKi"],
 "data": [
  ["N[C@@H](COC(=O)N[C@@H](CSCc1ccccc1)C(=O)NC(C(=O)O)c1ccccc1)C(=O)O (stereo partly drawn) [UrPhg-Benzyl (III), H-Glo[Cys(Bzl)-Phg-OH]-OH]", "human GSTA1-1 (Homo sapiens)", 4.54],
  ["N[C@@H](CCCN[C@@H](CSCc1ccccc1)C(=O)NC(C(=O)O)c1ccccc1)C(=O)O (stereo partly drawn)", "human GSTA1-1 (Homo sapiens)", 4.26],
  ["N[C@@H](CCC(=O)N[C@@H](CSCc1ccccc1)C(=O)NC(C(=O)O)c1ccccc1)C(=O)O (stereo partly drawn) [GluPhg-Benzyl (I), reference compound] (γGlu-Cys(Bn)-[ξPhg]-OH)", "human GSTA1-1 (Homo sapiens)", 4.64]
]}
